FYI, the data here is from paper PMC9656319.

test.name: Stability of the analytes in spiked plasma, brain, kidney and spleen matrices (autosampler, long-term, freeze-thaw)
Assay type: physicochemical, mice
test.parameters: brain, nominal 3.0 µg/mL, three cycles (−4 °C to 25 °C)
Reported Stability Freeze-Thaw RE (%) is given for each of the following molecules.
The reply should be a number in %, with the unit left off.

Reference set (4 entries):
• COc1ccc2ccc(=O)oc2c1 [HR, herniarin] = -5.14
• COc1cc2ccc(=O)oc2c(OC)c1OC [DF, dimethylfraxetin] = -6.72
• COc1cc2ccc(=O)oc2cc1OC [SC, scoparone] = -3.09
• CC(C)=CCOc1ccc2ccc(=O)oc2c1 [PU, 7-O-prenylumbelliferone] = -4.49

Problem: Using the record for COc1cc2ccc(=O)oc2cc1OCC=C(C)C [PE, 7-O-prenylscopoletin] , report its Stability Freeze-Thaw RE (%).
Result: -2.34

* * *

test.name: Pharmacokinetic study in plasma after oral hexanic extract of Tagetes lucida, healthy and LPS-damaged mice
Format: in vivo, ICR mice
test.parameters: ICR, mouse, plasma, po, 10 mg/kg, healthy ICR mice, 10 mg/kg oral hexanic extract, mean ± SEM (n = 5)
measurement.label: AUC(0-inf)
Put down the number, then write its unit next to it.

Reference set (4 entries):
* COc1cc2ccc(=O)oc2c(OC)c1OC [DF, dimethylfraxetin] | 1710 ng·h/mL
* COc1cc2ccc(=O)oc2cc1OCC=C(C)C [PE, 7-O-prenylscopoletin] | 1700 ng·h/mL
* CC(C)=CCOc1ccc2ccc(=O)oc2c1 [PU, 7-O-prenylumbelliferone] | 1520 ng·h/mL
* COc1cc2ccc(=O)oc2cc1OC [SC, scoparone] | 4030 ng·h/mL

Problem: Using the record for COc1ccc2ccc(=O)oc2c1 [HR, herniarin] , report its AUC(0-inf).
Result: 1030 ng·h/mL

* * *

test.name: Stability of the analytes in spiked plasma, brain, kidney and spleen matrices (autosampler, long-term, freeze-thaw)
Assay type: physicochemical, mice
test.parameters: spleen, nominal 0.3 µg/mL, −70 °C for 30 days
measurement.label: Stability Long-Term RE (%)
The reply should be a number in %, with the unit left off.

* COc1cc2ccc(=O)oc2cc1OC | -9.67
* COc1cc2ccc(=O)oc2c(OC)c1OC | 5.43
* COc1cc2ccc(=O)oc2cc1OCC=C(C)C | 1.51
* CC(C)=CCOc1ccc2ccc(=O)oc2c1 | -6.92

From here, focus on the item given below.
Problem: Using the record for COc1ccc2ccc(=O)oc2c1 , report its Stability Long-Term RE (%).
Result: 0.22

* * *

test.name: Pharmacokinetic study in plasma after oral hexanic extract of Tagetes lucida, healthy and LPS-damaged mice
Format: in vivo, ICR mice
test.parameters: ICR, mouse, plasma, po, 10 mg/kg, LPS-damaged ICR mice, 10 mg/kg oral hexanic extract, to 6 h, mean ± SEM (n = 5)
Reported AUC(0-t) is given for each of the following compounds.
The reply should be a number in ng·h/mL, with the unit left off.

Reference set (3 entries):
• CC(C)=CCOc1ccc2ccc(=O)oc2c1 = 2220
• COc1ccc2ccc(=O)oc2c1 = 2950
• COc1cc2ccc(=O)oc2cc1OCC=C(C)C = 3520

Problem: Using the record for COc1cc2ccc(=O)oc2cc1OC , report its AUC(0-t).
Result: 2770

Problem: How about this compound: COc1cc2ccc(=O)oc2c(OC)c1OC
Result: 3250
